experiment: Selective ratio of HC50 for human RBC to IC50 for human HeLa cells; assay type: toxicity; conditions: human red blood cells versus HeLa cells
# selectivity ratio per record follows
Could you keep your reply to the number by itself?

Below are worked cases with known answers.
# SMI, TEST RESULT
records = [
    ("CC(C)[C@@H]1NC(=O)[C@H](CCCN)NC(=O)[C@H]([C@H](O)C(C)C)NC(=O)C2=CC3=C4CCCC4=C4C=C(S[C@]4(C)[C@@]3(C)S2)C(=O)[C@H]2CCCN2C(=O)[C@H](C(C)C)NC(=O)[C@H](CCCN)NC(=O)[C@H]([C@H](O)C(C)C)NC(=O)[C@@H]2CCCN2C(=O)[C@@H](Cc2ccccc2)NC1=O", 0.5),
    ("Cc1sc2cc1C1=C(CCC1)c1cc(sc1C)C(=O)[C@H]1CCCN1C(=O)[C@H](C(C)C)NC(=O)[C@H](CCCN)NC(=O)[C@H]([C@H](O)C(C)C)NC(=O)[C@@H]1CCCN1C(=O)[C@@H](Cc1ccccc1)NC(=O)[C@H](C(C)C)NC(=O)[C@H](CCCN)NC(=O)[C@H]([C@H](O)C(C)C)NC2=O", 2.6),
    ("Cc1sc2cc1C1=C(CCC1)c1cc(sc1C)C(=O)[C@H]1CCCN1C(=O)[C@H](CC(C)C)NC(=O)[C@H](CCCNC(=N)N)NC(=O)[C@H](C(C)C)NC(=O)[C@@H]1CCCN1C(=O)[C@@H](Cc1ccccc1)NC(=O)[C@H](CC(C)C)NC(=O)[C@H](CCCNC(=N)N)NC(=O)[C@H](C(C)C)NC2=O", 0.5),
    ("CC(C)[C@@H]1NC(=O)C2=CC3=C4CCCC4=C4C=C(S[C@]4(C)[C@@]3(C)S2)C(=O)[C@H]2CCCN2C(=O)[C@H](C(C)C)NC(=O)[C@H](CCCN)N(C)C(=O)[C@H](C(C)C)NC(=O)[C@@H]2CCCN2C(=O)[C@@H](Cc2ccccc2)N(C)C(=O)[C@H](C(C)C)NC(=O)[C@H](CCCN)NC1=O", 1.9),
    ("CC(C)C[C@@H]1NC(=O)C2=CC3=C4CCCC4=C4C=C(S[C@]4(C)[C@@]3(C)S2)C(=O)[C@H]2CCCN2C(=O)[C@H](C(C)C)NC(=O)[C@H](CCCCN)NC(=O)[C@H](CC(C)C)NC(=O)[C@H](CCCCN)NC(=O)[C@@H]2CCCN2C(=O)[C@@H](Cc2ccccc2)NC(=O)[C@H](CCCCN)NC(=O)[C@H](C(C)C)NC(=O)[C@H](CCCCN)NC1=O", 1),
]

Using known records, supply selectivity ratio for Cc1sc2cc1C1=C(CCC1)c1cc(sc1C)C(=O)[C@H]1CCCN1C(=O)[C@H](Cc1ccc(O)cc1)NC(=O)[C@H](CCCN)NC(=O)[C@H](C(C)C)NC(=O)[C@@H]1CCCN1C(=O)[C@@H](Cc1ccccc1)NC(=O)[C@H](Cc1ccc(O)cc1)NC(=O)[C@H](CCCN)NC(=O)[C@H](C(C)C)NC2=O
0.2

Query selectivity ratio for CCCCN1C(=O)[C@@H](Cc2ccccc2)NC(=O)[C@H](CC(C)C)NC(=O)[C@H](CCCN)NC(=O)[C@H]([C@@H](C)CC)NC(=O)C2=CC3=C4CCCC4=C4C=C(S[C@]4(C)[C@@]3(C)S2)C(=O)[C@H]2CCCN2C(=O)[C@H](CC(C)C)NC(=O)[C@H](CCCN)NC(=O)[C@H]([C@@H](C)CC)NC(=O)[C@@H]1CC(C)C
1

Answer with the recorded selectivity ratio of Cc1sc2cc1C1=C(CCC1)c1cc(sc1C)C(=O)[C@H]1CCCN1C(=O)[C@H]([C@H](O)C(C)C)NC(=O)[C@H](CCCN)NC(=O)[C@H](C(C)C)NC(=O)[C@@H]1CCCN1C(=O)[C@@H](Cc1ccccc1)NC(=O)[C@H](C(C)C)NC(=O)[C@H](CCCN)NC(=O)[C@H](C(C)C)NC2=O only.
1.3

Indicate the recorded selectivity ratio value for this molecule: Cc1sc2cc1C1=C(CCC1)c1cc(sc1C)C(=O)[C@H]1CCCN1C(=O)[C@H](C)NC(=O)[C@H](CCCN)NC(=O)[C@H](C(C)C)NC(=O)[C@@H]1CCCN1C(=O)[C@@H](Cc1ccccc1)NC(=O)[C@H](CC(C)C)NC(=O)[C@H](CCCN)NC(=O)[C@H](C)NC2=O
2.2

Consider the molecule CC[C@H](C)[C@@H]1NC(=O)c2cc(c(C)s2)C2=C(CCC2)c2cc(sc2C)C(=O)[C@H]2CCCN2C(=O)[C@H](CC(C)C)NC(=O)[C@H](CCCN)NC(=O)[C@H]([C@@H](C)CC)NC(=O)[C@@H]2CCCN2C(=O)[C@H]2CCCN2C(=O)[C@H](CC(C)C)NC(=O)[C@H](CCCN)NC1=O and give its recorded selectivity ratio.
1.3

Please give the documented selectivity ratio of Cc1sc2cc1C1=C(CCC1)c1cc(sc1C)C(=O)[C@H]1CCCN1C(=O)[C@H](C(C)C)NC(=O)[C@H](CCCN)NC(=O)[C@H](C(C)C)NC(=O)[C@@H]1CCCN1C(=O)[C@@H](Cc1ccccc1)NC(=O)[C@H](C(C)C)NC(=O)[C@H](CCCN)NC(=O)[C@H](CCNC(=O)C(C)C)NC2=O
4.7

Retrieve selectivity ratio measured for Cc1sc2cc1C1=C(CCC1)c1cc(sc1C)C(=O)[C@H]1CCCN1C(=O)[C@H](CC(C)C)NC(=O)[C@H](CCCCN)NC(=O)[C@H](C(C)C)NC(=O)[C@H](CCCCN)NC(=O)[C@H](CC(C)C)NC(=O)[C@H](CCCCN)N(C)C(=O)[C@@H](Cc1ccccc1)NC(=O)[C@H](C(C)C)NC(=O)[C@H](CCCCN)NC(=O)[C@H](CC(C)C)NC(=O)[C@H](CCCCN)NC(=O)[C@H](C(C)C)NC2=O and print it.
0.5

// fetch selectivity ratio given entry CC[C@H](C)[C@@H]1NC(=O)C2=CC3=C4CCCC4=C4C=C(S[C@]4(C)[C@@]3(C)S2)C(=O)[C@H]2CCCN2C(=O)[C@H](CC(C)C)NC(=O)[C@H](CCCN)NC(=O)[C@H]([C@@H](C)CC)NC(=O)[C@@H]2CCCN2C(=O)[C@H]2CCCN2C(=O)[C@H](CC(C)C)NC(=O)[C@H](CCCN)NC1=O
1.9
